Origin of values: PubChem BioAssay

# z-score per entry
assay: MM1S cell viability effects, profiling panel, calcein-AM fluorescence, 48 h, basal (AID 1165); conditions: higher = more signal;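 also: viability of MM1S multiple myeloma cells under basal unstimulated conditions; test concentration not given here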

CCCC=C(CCC)[C@@H](NS(=O)(=O)c1cccs1)c1ccc(C(=O)OC)cc1 = -3.33
COCCOC(=O)N1C(=O)[C@@]2(c3cc(C#CCCO)ccc31)[C@H](c1ccc(OCCO)cc1)N1[C@H](c3ccccc3)[C@H](c3ccccc3)OC(=O)[C@H]1[C@@H]2C(=O)N1CCN(c2ncccn2)CC1 = -1.32
C=C(C)C1C(=C)CN([C@H](CO)c2ccccc2)C1=O (some centres undefined) = 0.0188

Inquiry: Name the reported z-score value associated with the molecule `COc1ccc(CCNC(=O)[C@@H]2c3ccccc3C(=O)N(C3Cc4ccccc4C3)[C@H]2c2ccc(CO)cc2)cc1`
Reply text: -0.532

###

The molecules listed here are annotated with their z-score.
target: NADPH oxidase 4 (Homo sapiens); experiment: NOX4-dependent H2O2 signal modulators, primary screen, NOX inhibitor project, cell-based, HEK293-NOX4, tetracycline-induced, Amplex Red fluorescence (AID 1160); details: 45 min, higher = more signal, called active from +8 up or from −8 down
// no unit, no text: just the number

NCCCCCNC(=O)[C@@H]1C[C@@H]2C(=O)N[C@@H](Cc3ccccc3)C(=O)N2[C@@H]1c1cccc(OCCO)c1 = -0.729
COC(=O)C=C(CC(O)c1cccc(Cl)c1)OC (stereo not drawn) = -0.0239
CCOC(=O)C1=CCC(c2ccc(C)cc2)N(S(=O)(=O)c2ccc(C)cc2)C1 (stereo not drawn) = 0.637
O=C1[C@H]2C=C(Br)[C@H](C[C@@H]2c2ccccc2)[C@@]12CO2 = 0.141
COc1ccc([Si](C)(C)[C@H]2[C@H](CCO)O[C@@]3(C(=O)N(Cc4ccc(N5C(=O)COc6ccccc65)cc4)c4ccccc43)[C@@H]2C)cc1 = 1.3

Inquiry: // map CN1C(=O)C2C=CC(C(O)C3=C[C@H]4C[C@@H](C3)C4(C)C)N(Nc3ccccc3)C2C1=O (stereo partly drawn) to recorded z-score (system: NADPH oxidase 4 (Homo sapiens))
Reply text: -3.91

Inquiry: Form field: z-score recorded for `COC(=O)[C@@]1(Cc2ccccc2)[C@H]2c3cc(C(=O)N4CCCC4)n(CC4CC4)c3C[C@H]2CN1C(=O)c1ccccc1` with NADPH oxidase 4 (Homo sapiens) (enter value)
Reply text: -2.68

Inquiry: z-score of `COCCCNC(=O)[C@@]1(Cc2ccccc2N=[N+]=[N-])N=C(c2ccc(OCCCO)cc2)O[C@H]1c1ccccc1N=[N+]=[N-]` on NADPH oxidase 4 (Homo sapiens)?
Reply text: 0.518

###

composite z-score listing for selected molecules.
test system: wheat germ agglutinin (Triticum aestivum), Alexa647-labelled; assay: wheat germ agglutinin binders on compound microarrays, profiling panel, artefact control for SMM control-protein annotation, biochemical, small-molecule microarray, 635/667 nm fluorescence (AID 1140); conditions: WGA-A647 binding, 635 nm fluorescence, higher = more signal;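 also: score merges 667 nm feature emission with signal to noise over triplicate slides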

Inquiry: Entry `C[C@@H]1ON(c2cccc(C(=O)OC(C)(C)C)c2)[C@H](c2ccc(Br)cc2)[C@H]1C(=O)N1C(=O)OC[C@H]1Cc1ccccc1` : reported composite z-score = ?
Reply text: 0.106

Inquiry: Recorded composite z-score for `COc1ccc([C@H]2OC[C@@H]3CC4(CC=CC4)C(=O)N32)cc1` , please?
Reply text: -0.284

Inquiry: Looking for the measured composite z-score of `[N-]=[N+]=Nc1ccccc1C[C@]1(C(N)=O)N=C(c2ccc(OCCCO)cc2)O[C@H]1c1ccccc1` , can you help?
Reply text: 1.23

Inquiry: If you can, please state the reported composite z-score value of `COc1cc2c(cc1O)C=[N+](Cc1cccc(OC(F)(F)F)c1)CC2` .
Reply text: 1.01

Inquiry: Quick one: composite z-score of `COc1ccc([Si](C)(C)[C@H]2[C@H](CC(=O)N3Cc4ccccc4C[C@H]3CO)O[C@@]3(C(=O)N(Cc4ccc(N5CCC5=O)cc4)c4ccccc43)[C@@H]2C)cc1` ?
Reply text: 0.104

Inquiry: Any idea what its composite z-score is? The molecule is `CCOC(=O)[C@H]1C/C=C/C[C@H](C(=O)OCC)C(=O)O[C@H]2[C@@H](OC)O[C@H](CO)[C@@H](OC(=O)Nc3cccc(F)c3)[C@@H]2OC1=O`
Reply text: 0.452

Inquiry: What value of composite z-score has been recorded for this entry: `O=C(NCc1ccccc1)[C@@]1(Cc2ccccc2)N=C(c2ccc(OCCCO)cc2)O[C@H]1c1ccccc1`
Reply text: 1.05

###

assay: HepG2 liver cancer cell viability effects, profiling panel, resazurin fluorescence, 24 h, PK04 Diversity Set (AID 1172); settings: higher = more signal; also: test concentration not given here
// reported z-score for each item listed
Answer using only a numeral; do not append any unit.

Inquiry: Report z-score for CN1C2C=C(CCCO)C(C3C(=O)N(C(N)=O)C(=O)C32)C1c1ccc(CN2CCCC2)cc1 (centres undefined) please.
Reply text: -0.163

Inquiry: Which measured z-score value corresponds to `C=CCN1C(=O)[C@]2(O[C@H](CCO)[C@@H]([Si](C)(C)c3ccc(OC)cc3)[C@@H]2C)c2cc(N3C(=O)c4cccc5cccc3c45)ccc21` ?
Reply text: -5.43

Inquiry: Tell me the measured z-score of `CCCN1C(=O)[C@]2(CCS(=O)(=O)c3ccccc3)N=C(c3ccc(OCCCO)cc3)O[C@@H]2c2ccccc21` , please.
Reply text: -0.264

Inquiry: I'd like to know its z-score. The compound in question is `CC(C)C[C@@H]1NC(=O)[C@H]2C[C@@H](C(=O)NCCCCCCN(C)C)[C@@H](c3ccc(O)cc3)N2C1=O`
Reply text: -0.447

Inquiry: Please give the measured z-score for this compound: `CCOC(=O)C=Cc1cc([N+](=O)[O-])ccc1O`
Reply text: -0.495

Inquiry: Suppose we examine the compound `COCCOC(=O)N1C(=O)[C@@]2(c3cc(C#CC4=CCCCC4)ccc31)[C@H](C(=O)N1CCc3cc(OC)c(OC)cc3C1)[C@H]1C(=O)O[C@H](c3ccccc3)[C@H](c3ccccc3)N1[C@@H]2c1ccc(OCCO)cc1` ; what z-score value has been reported?
Reply text: 0.149

Inquiry: Report z-score for `COC(=O)c1c(CC[C@@H](CO)NC(=O)N[C@@H](C)Cn2cc(C3(O)CCCCC3)nn2)oc(C(C)=O)c1C(=O)OC` please.
Reply text: -1.26

Inquiry: I would be grateful if you could share the reported z-score for `C=CCNC(=O)[C@@H]1[C@H]2C(=O)O[C@H](c3ccccc3)[C@H](c3ccccc3)N2[C@H](c2ccc(OCCO)cc2)[C@@]12C(=O)Nc1ccc(C#CCCO)cc12` .
Reply text: -0.13

Inquiry: Any idea what z-score was measured for `C=CCOC(=O)[C@@H]1[C@H]2C(=O)O[C@H](c3ccccc3)[C@H](c3ccccc3)N2[C@H](c2ccc(OCCOC(=O)[C@@H]3C[C@@H]4C(=O)N[C@@H](Cc5ccccc5)C(=O)N4[C@@H]3c3ccc(O)cc3)cc2)[C@@]12C(=O)Nc1ccc(I)cc12` ?
Reply text: -0.437

Inquiry: Any idea what its z-score is? The compound is CN1C(=O)C2C=CC(C(O)C3CC=CCC3)N(NC(=O)OC(C)(C)C)C2C1=O (centres undefined)
Reply text: -1.53

Inquiry: Given the compound `[N-]=[N+]=Nc1ccccc1C[C@]1(C(N)=O)N=C(c2ccc(OCCCO)cc2)O[C@H]1c1ccccc1` , what is its reported z-score?
Reply text: 0.329

Inquiry: Quick one: z-score of `COCC(=C=CC[C@H](O)c1ccccc1OCCO)C[C@H](O)c1cc(Cl)cc(Cl)c1O` ?
Reply text: -1.18

Inquiry: What does the data say about its z-score? Entry: `COCCCNC(=O)[C@@]1(Cc2ccccc2N=[N+]=[N-])N=C(c2ccc(OCCCO)cc2)O[C@H]1c1ccccc1N=[N+]=[N-]`
Reply text: -0.993

Inquiry: Given the entry `CN1C(=O)[C@]2(Cc3ccccc3)N=C(c3ccc(OCCCO)cc3)O[C@@H]2c2ccccc21` , report its measured z-score.
Reply text: -0.635

###

test: CREB reporter modulators without forskolin, primary screen, cell-based, PC12, CRE-LacZ reporter, unstimulated (AID 1145); details: no forskolin, luminescence, 4.5 h, higher = more signal, called active from +8 up or from −8 down
Lab note: anything with z-score at or over 0.8 counts as MET; the rest go in NOT MET.

A selection of reference data follows.
CC(C)(C)OC(=O)CC[C@]12N=C(c3ccc(OCCCO)cc3)O[C@H]1c1ccccc1N(CCS(=O)(=O)c1ccccc1)C2=O = MET
CCOC(=O)C[C@H]1[C@H](OC(=O)c2cc3ccccc3oc2=O)[C@@H](NC(=O)Cc2ccc(OC)cc2)c2cc(OCCCO)ccc2N1C(=O)c1ccccc1 = MET
CCOC(=O)C1=CCC(c2ccc(C)cc2)N(S(=O)(=O)c2ccc(C)cc2)C1 (configuration not stated) = NOT MET
COC(=O)[C@@]1(Cc2ccccc2)[C@H]2c3cc(C(=O)N4CCCC4)n(Cc4nc5ccccc5[nH]4)c3C[C@H]2CN1C(=O)c1ccccc1 = NOT MET
CCCC=C(CCC)[C@@H](NC(=O)Oc1ccc(F)cc1)c1ccc(C(=O)OC)cc1 = NOT MET
CN(C)C(=O)[C@@]1(Cc2ccccc2)N=C(c2ccc(OCCCO)cc2)O[C@H]1c1ccccc1N=[N+]=[N-] = NOT MET

# next compound below
Inquiry: Does `COc1cc2c(cc1OC)CN(C(=O)[C@H]1[C@@H]3C(=O)O[C@@H](c4ccccc4)[C@@H](c4ccccc4)N3[C@@H](c3ccc(O)cc3)[C@]13C(=O)Nc1ccc(C#CC4=CCCCC4)cc13)CC2` have a reported z-score of at least 0.8?
Reply text: NOT MET
